Would you kindly list pIC50 for each of these compounds?
- tested_on: human-SP9215 (GPR119) (Homo sapiens)
- Construct: expressed in transfected cells
- Sequence (Q8TDV5 1-335): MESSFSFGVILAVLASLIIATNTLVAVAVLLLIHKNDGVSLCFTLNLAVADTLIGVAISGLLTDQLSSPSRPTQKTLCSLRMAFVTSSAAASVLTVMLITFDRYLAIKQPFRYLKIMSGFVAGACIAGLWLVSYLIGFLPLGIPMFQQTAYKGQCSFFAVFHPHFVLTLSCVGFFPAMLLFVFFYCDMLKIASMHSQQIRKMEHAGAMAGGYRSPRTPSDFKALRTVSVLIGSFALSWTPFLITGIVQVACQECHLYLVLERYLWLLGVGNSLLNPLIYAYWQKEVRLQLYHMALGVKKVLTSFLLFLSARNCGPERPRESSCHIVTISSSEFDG
- assay_info: GPR119 screening assay (LANCE cAMP)
- Assay type: cell-based
- cond: HEK 293 cells stably transfected with human GPR119, read-out: GPR 119 cAMP IC50
Numbers only, as −log10 of the molar value.

Provide reported pIC50 for each item, in the same order as listed.
1. CC(C)CN1CC2(CCN(C(=O)c3ccc4c(c3)OCCCO4)CC2)C1c1ccccc1 (centres unmarked)
2. O=C(c1ccc2[nH]cnc2c1)N1CCC2(CC1)CN(Cc1ccccc1Cl)C2c1ccccc1 (centres unmarked)
3. O=C(c1ccc2c(c1)OCCCO2)N1CCC2(CC1)CN(Cc1ccccc1Cl)C2c1ccc(Cl)cc1 (centres unmarked)
4. O=C(c1ccc2c(c1)OCCCO2)N1CCC2(CC1)CN(c1ccc(F)cc1)C2c1ccc(Cl)cc1 (centres unmarked)
5. CC(C)CN1CC2(CCN(C(=O)c3ccc4c(c3)OCCCO4)CC2)C1c1ccc(Cl)cc1 (centres unmarked)

Result string:
1: 5.72; 2: 5.53; 3: 5.56; 4: 5.79; 5: 5.58

----------
- tested_on: human CaV3.2 (Homo sapiens, UniProt O95180)
- Construct: expressed in transfected cells
- Sequence (O95180 whole entry): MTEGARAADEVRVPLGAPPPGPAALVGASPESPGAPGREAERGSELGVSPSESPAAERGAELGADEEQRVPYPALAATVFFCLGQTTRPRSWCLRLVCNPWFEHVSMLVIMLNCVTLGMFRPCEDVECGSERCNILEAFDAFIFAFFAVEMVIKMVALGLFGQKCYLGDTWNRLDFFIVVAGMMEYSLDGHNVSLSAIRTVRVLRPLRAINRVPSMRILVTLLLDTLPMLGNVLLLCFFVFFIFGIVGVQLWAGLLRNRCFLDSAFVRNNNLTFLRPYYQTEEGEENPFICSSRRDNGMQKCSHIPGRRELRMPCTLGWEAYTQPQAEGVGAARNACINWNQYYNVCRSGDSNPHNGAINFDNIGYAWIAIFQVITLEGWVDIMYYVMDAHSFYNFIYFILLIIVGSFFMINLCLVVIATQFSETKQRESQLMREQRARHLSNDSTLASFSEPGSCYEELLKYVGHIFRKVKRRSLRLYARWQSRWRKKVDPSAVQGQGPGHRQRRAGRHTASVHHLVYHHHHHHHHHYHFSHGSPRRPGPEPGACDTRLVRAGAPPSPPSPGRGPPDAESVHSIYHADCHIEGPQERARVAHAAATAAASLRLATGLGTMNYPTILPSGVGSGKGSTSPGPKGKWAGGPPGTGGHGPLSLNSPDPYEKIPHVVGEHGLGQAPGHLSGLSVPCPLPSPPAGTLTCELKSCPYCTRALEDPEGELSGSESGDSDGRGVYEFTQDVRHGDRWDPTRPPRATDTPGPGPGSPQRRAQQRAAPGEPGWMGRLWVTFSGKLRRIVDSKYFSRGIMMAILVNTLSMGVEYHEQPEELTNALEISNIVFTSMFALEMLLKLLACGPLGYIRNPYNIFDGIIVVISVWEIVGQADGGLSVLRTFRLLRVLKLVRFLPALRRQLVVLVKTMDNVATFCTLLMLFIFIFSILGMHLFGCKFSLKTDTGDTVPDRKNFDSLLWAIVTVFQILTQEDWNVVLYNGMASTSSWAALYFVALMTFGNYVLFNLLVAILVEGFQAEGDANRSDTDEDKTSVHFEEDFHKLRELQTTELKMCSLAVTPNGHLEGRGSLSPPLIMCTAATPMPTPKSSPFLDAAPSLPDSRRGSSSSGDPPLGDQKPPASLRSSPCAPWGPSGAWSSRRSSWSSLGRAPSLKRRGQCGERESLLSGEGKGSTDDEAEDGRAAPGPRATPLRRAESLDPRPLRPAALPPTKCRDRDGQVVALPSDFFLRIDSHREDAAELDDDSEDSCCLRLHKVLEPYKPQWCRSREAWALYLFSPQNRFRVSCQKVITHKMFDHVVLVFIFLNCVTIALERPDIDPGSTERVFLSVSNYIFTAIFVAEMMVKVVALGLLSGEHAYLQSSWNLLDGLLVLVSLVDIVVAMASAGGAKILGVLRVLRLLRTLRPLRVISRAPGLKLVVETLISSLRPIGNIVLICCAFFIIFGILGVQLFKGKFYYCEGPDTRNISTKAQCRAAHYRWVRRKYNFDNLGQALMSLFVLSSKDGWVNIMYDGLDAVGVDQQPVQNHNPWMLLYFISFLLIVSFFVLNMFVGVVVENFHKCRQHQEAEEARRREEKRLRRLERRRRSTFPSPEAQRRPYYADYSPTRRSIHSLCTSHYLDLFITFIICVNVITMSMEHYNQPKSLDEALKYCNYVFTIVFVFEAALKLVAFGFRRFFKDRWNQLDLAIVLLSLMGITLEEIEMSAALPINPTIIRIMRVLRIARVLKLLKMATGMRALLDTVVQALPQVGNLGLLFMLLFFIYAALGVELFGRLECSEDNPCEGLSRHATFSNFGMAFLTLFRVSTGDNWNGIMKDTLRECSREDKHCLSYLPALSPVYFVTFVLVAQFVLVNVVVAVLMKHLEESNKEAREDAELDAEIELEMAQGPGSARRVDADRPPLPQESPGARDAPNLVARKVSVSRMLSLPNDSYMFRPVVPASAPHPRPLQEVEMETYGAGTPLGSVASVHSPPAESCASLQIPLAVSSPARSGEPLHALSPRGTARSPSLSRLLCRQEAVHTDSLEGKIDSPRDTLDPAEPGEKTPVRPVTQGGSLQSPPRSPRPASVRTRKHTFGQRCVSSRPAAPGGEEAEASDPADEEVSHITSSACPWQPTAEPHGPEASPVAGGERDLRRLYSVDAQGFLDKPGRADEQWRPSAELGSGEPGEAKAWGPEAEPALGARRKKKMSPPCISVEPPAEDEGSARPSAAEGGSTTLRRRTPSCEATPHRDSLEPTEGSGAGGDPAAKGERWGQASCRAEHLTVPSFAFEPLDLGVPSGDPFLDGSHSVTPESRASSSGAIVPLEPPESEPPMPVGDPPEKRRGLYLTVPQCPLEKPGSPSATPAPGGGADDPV
- assay_info: IonWorks screen for hCaV3.2 (Cav3.2 Ionworks assay)
- Format: cell-based
- cond: read-out: IW hCav3 2 IC50
quantity_measured: pIC50
One number for each entry, as −log10 of the molar value.

Consider the following illustrative entries.
| compound | pIC50 |
| --- | --- |
| O=C(C1CCCCC1)N1CCC2(CC1)CN(C(=O)C1(c3ccc(Cl)cc3)CCCC1)C2c1ccccc1 (centres unmarked) | 6.42 |
| CC(C)N1CC2(CCN(C(=O)Nc3cc(F)cc(F)c3)CC2)C1c1ccc(Cl)cc1 (single isomer, unassigned) | 7.49 |
| COC(=O)[C@H](CC(C)C)NC(=O)N1CCC2(CC1)CN(C(C)C)C2c1ccc(Cl)cc1 (some centres unmarked) | 7.19 |
| COC(=O)[C@@H](NC(=O)N1CCC2(CC1)CN(CC(C)C)C2c1ccc(Cl)cc1)C(C)C (some centres unmarked) | 7.49 |

Provide reported pIC50 for each item, in the same order as listed.
1. CC[C@H](C)[C@H](NC(=O)N1CCC2(CC1)CN(CC(C)C)C2c1ccc(Cl)cc1)C(=O)OC (some centres unmarked)
2. CC(C)N1CC2(CCN(C(=O)Nc3ccc(F)cc3)CC2)C1c1ccc(Cl)cc1 (single isomer, unassigned)
3. CC[C@H](C)[C@H](NC(=O)N1CCC2(CC1)CN(c1ccc(F)cc1)C2c1ccc(Cl)cc1)C(=O)OC (some centres unmarked)
4. COC(=O)[C@H](CC(C)C)NC(=O)N1CCC2(CC1)CN(CC(C)C)C2c1ccc(Cl)cc1 (some centres unmarked)

Result string:
7.59
7.16
7.11
7.64

Sourced from patent US20080070892A1
